Tested on: KM12 colon
Experimental details: NCI-60 one-dose screen, 48 h
Measurement setup: 10 µM unless noted
This is part of a sample that, as a whole, favours compounds with a hit. Of some 83,000 tested, about 20% had one in any assay. Active and inactive are the calls of the source. How the source made its calls: active means growth percent below 10; inactive means the rest.
Choose one outcome from this list and give only that: active, inactive

Before answering, review these 2 worked examples.
| Molecule | Label class |
| --- | --- |
| O=C([O][Sn]([O]C(=O)c1ccccn1)([c]1ccccc1)[c]1ccccc1)c1ccccn1 | inactive |
| CC(C)(C)Nc1c(-c2cccs2)nc2ncccn12 | inactive |

Q) Which outcome was assigned to O=c1ccn(C2CC(O)C(O)C(CO)O2)c(=O)[nH]1 (configuration not stated) in this test?
A) inactive

Q) Which outcome was assigned to COc1c2occc2c(OC)c2c(=O)c(-c3cc(-c4ccc(F)cc4)c(C#N)c(N)n3)c(C)oc12 in this test?
A) inactive

Q) Which outcome was assigned to O=[N+]([O-])c1cccc(-c2nc3sccn3c2-c2ccnc(NCCCNS(=O)(=O)c3ccc(Cl)cc3)n2)c1 in this test?
A) inactive

Q) Which outcome was assigned to COc1cc(/C=C/C(=O)N2CCN(C(=O)/C=C/c3cc(OC)c(OC)c(OC)c3)CC2)cc(OC)c1OC in this test?
A) inactive

Q) Which outcome was assigned to COc1ccc(C(=O)n2nc(/C=C/c3ccc(O)c(OC)c3)cc2/C=C/c2ccc(O)c(OC)c2)cc1 in this test?
A) active
